target: T1, ubiquitin mutein 77404; test: SPR; point mutant M23E
T1 construct: also called Affilin-77404
Experimental Endpoint: Kd

{"Binder": "SEQ ID NO: 2_M23E (designed binder) AMDDFAQYSAWAEIEALPNLTEEQKDQFIWSLMFDPSVSKEVLGEAQKLNDSQAPK", "Value": "< 0.5 nM"}
